Measured protein stability index, listed per entry.
B1: SPSB1 (parent)
chain: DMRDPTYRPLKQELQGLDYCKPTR

variants of: B1; assay: protein stability index of a GFP-peptide fusion (GPS, HEK-293T) (PSI 1-6); higher = more stable; settings: c terminus: a fixed tail appended;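 further: lentivirally expressed fusions sorted by FACS into six bins by GFP to DsRed ratio, PSI derived from sequencing read proportions per bin multiplied by bin number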
The answer should be a number; do not append a unit.

Known protein stability index results, listed for orientation:
G16V = 2.71
R8M = 3.5
Y7M = 2.64
R3Y = 2.8
Y19V = 4.5
T23K = 3.9

For the variant `Y7N` , what protein stability index is on record?
3.34

For the variant `R24F` , what protein stability index is on record?
2.41

For the variant `D18I` , what protein stability index is on record?
2.89

For the variant `Q12L` , what protein stability index is on record?
3.84

For the variant `P5A` , what protein stability index is on record?
3.28

Origin of values: the supplement of paper PMC10567573
